Assay: Stressed thermal stability test (70° C. for 58 hours), impurities by HPLC
Format: physicochemical
Conditions: Time zero
Where a name gives a salt, the structure may show the parent alone.
testReadout: Impurity (c) (HPLC A %)

>>> result("CNCCC(Oc1ccccc1C)c1ccccc1 (single isomer, unassigned) [Sample 4, Atomoxetine Hydrochloride]")
"not detected"
>>> result("CNCCC(Oc1ccccc1C)c1ccccc1 (single isomer, unassigned) [Sample 2, Atomoxetine Hydrochloride]")
"not detected"
>>> result("CNCCC(Oc1ccccc1C)c1ccccc1 (single isomer, unassigned) [Sample 1, Atomoxetine Hydrochloride]")
"not detected"
>>> result("CNCCC(Oc1ccccc1C)c1ccccc1 (single isomer, unassigned) [Sample 3, Atomoxetine Hydrochloride]")
"not detected"

====

Assay: Stability test (40° C., five days), impurities by HPLC
Assay type: physicochemical
Settings: End of test time, Hydrochloride
Where a name gives a salt, the structure may show the parent alone.
testReadout: Impurity (a) (HPLC A %)

>>> result("CNCCC(Oc1ccccc1C)c1ccccc1 (stereo not shown) [Sample 10, Atomoxetine Hydrochloride]")
"not detected"
>>> result("CNCCC(Oc1ccccc1C)c1ccccc1 (stereo not shown) [Sample 8, Atomoxetine Hydrochloride]")
"not detected"
>>> result("CNCCC(Oc1ccccc1C)c1ccccc1 (stereo not shown) [Sample 7, Atomoxetine Hydrochloride]")
"0.633% HPLC A %"
>>> result("CNCCC(Oc1ccccc1C)c1ccccc1 (stereo not shown) [Sample 9, Atomoxetine Hydrochloride]")
"not detected"

====

Experiment: Stressed thermal stability test (70° C. for 58 hours), impurities by HPLC
Format: physicochemical
Settings: End of test time, Hydrochloride
Where a name gives a salt, the structure may show the parent alone.
testReadout: Impurity (b) (HPLC A %)

>>> result("CNCCC(Oc1ccccc1C)c1ccccc1 (single isomer, unassigned) [Sample 3, Atomoxetine Hydrochloride]")
"not detected"
>>> result("CNCCC(Oc1ccccc1C)c1ccccc1 (single isomer, unassigned) [Sample 1, Atomoxetine Hydrochloride]")
"14.2% HPLC A %"
>>> result("CNCCC(Oc1ccccc1C)c1ccccc1 (single isomer, unassigned) [Sample 4, Atomoxetine Hydrochloride]")
"not detected"
>>> result("CNCCC(Oc1ccccc1C)c1ccccc1 (single isomer, unassigned) [Sample 2, Atomoxetine Hydrochloride]")
"not detected"

====

Experiment: Determination of pH of Atomoxetine Hydrochloride samples in aqueous solution
Type: physicochemical
Conditions: samples of the 40° C. stability test; Hydrochloride
Structures can show the parent of a compound that is named as a salt.
List of aqueous pH test results values.
testReadout: aqueous pH test results

>>> result("CNCCC(Oc1ccccc1C)c1ccccc1 (stereo not shown) [Sample 7, Atomoxetine Hydrochloride]")
2.4
>>> result("CNCCC(Oc1ccccc1C)c1ccccc1 (stereo not shown) [Sample 9, Atomoxetine Hydrochloride]")
4.8
>>> result("CNCCC(Oc1ccccc1C)c1ccccc1 (stereo not shown) [Sample 8, Atomoxetine Hydrochloride]")
4.4
>>> result("CNCCC(Oc1ccccc1C)c1ccccc1 (stereo not shown) [Sample 10, Atomoxetine Hydrochloride]")
6.1

====

Test: Stability test (40° C., five days), impurities by HPLC
Assay type: physicochemical
Conditions: End of test time, Hydrochloride
Counter-ions that a name gives are not always drawn.
testReadout: Impurity (b) (HPLC A %)

>>> result("CNCCC(Oc1ccccc1C)c1ccccc1 (stereo not shown) [Sample 9, Atomoxetine Hydrochloride]")
"not detected"
>>> result("CNCCC(Oc1ccccc1C)c1ccccc1 (stereo not shown) [Sample 7, Atomoxetine Hydrochloride]")
"0.0482% HPLC A %"
>>> result("CNCCC(Oc1ccccc1C)c1ccccc1 (stereo not shown) [Sample 8, Atomoxetine Hydrochloride]")
"not detected"
>>> result("CNCCC(Oc1ccccc1C)c1ccccc1 (stereo not shown) [Sample 10, Atomoxetine Hydrochloride]")
"not detected"
